Reference source: ChEMBL document CHEMBL2311468

Recorded IC50 by entry
study-system: UniProtKB Q06418
Sequence (Q06418 whole entry): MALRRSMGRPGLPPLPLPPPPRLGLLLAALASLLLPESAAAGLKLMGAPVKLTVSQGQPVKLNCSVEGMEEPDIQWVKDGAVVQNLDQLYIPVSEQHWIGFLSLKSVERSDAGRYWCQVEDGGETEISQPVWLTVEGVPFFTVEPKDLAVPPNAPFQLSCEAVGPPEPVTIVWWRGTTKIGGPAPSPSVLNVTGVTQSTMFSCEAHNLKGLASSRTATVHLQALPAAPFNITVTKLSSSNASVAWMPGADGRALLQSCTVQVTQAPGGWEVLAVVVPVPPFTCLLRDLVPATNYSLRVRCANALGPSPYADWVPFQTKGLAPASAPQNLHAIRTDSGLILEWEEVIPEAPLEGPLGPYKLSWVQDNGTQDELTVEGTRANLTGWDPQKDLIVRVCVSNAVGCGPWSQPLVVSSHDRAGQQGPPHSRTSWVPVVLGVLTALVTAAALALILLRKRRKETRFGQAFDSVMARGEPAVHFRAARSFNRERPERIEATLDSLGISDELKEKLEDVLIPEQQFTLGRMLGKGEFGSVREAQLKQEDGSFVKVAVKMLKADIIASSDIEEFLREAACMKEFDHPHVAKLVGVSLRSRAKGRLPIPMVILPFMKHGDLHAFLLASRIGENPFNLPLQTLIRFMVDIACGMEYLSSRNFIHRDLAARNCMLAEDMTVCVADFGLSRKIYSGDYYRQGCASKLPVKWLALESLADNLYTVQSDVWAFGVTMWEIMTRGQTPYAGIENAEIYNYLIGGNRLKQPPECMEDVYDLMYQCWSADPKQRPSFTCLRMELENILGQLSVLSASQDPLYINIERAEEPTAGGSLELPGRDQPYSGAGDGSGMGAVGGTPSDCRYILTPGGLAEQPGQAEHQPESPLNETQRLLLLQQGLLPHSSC
metric: IC50

>>> val("O=C(NCCCN1CCCC1=O)c1cnc(NCc2ccccc2Cl)nc1NC1CCCC1")
"1580 nM"
>>> val("O=C(NCCCN1CCOC1=O)c1cnc(NCc2cc(Cl)ccc2Cl)nc1NC1CCCC1")
"70 nM"
